Provide the recorded MIC B. cereus (+) for the entries that follow.
system: B. cereus (+); assay: Antibacterial MIC test (CLSI); type: cell-based; settings: MHB liquid medium, 37° C., 24 hours
Give bare numbers, in µg/mL.

Reference set (2 entries):
{"columns": ["molecule", "MIC B. cereus (+) (µg/mL)"],
 "data": [
  ["CCC(NC)C(=O)Nc1ccc(-c2ccc(Cl)c(Cl)c2)cc1.Cl (racemic)", 16],
  ["CCC(N)C(=O)NCCc1ccc(-c2ccc(Cl)c(Cl)c2)cc1.Cl (racemic)", 32]
]}

Now examine the next entry.
Incoming: Consider the molecule shown here: CCC(N)C(=O)Nc1ccc(-c2ccc(Cl)c(Cl)c2)cc1.Cl (racemic) What is its recorded MIC B. cereus (+)?
Outgoing: 8
